assayedTarget: T1, GIP receptor (UniProt P48546 22-466)
T1 sequence (looked up): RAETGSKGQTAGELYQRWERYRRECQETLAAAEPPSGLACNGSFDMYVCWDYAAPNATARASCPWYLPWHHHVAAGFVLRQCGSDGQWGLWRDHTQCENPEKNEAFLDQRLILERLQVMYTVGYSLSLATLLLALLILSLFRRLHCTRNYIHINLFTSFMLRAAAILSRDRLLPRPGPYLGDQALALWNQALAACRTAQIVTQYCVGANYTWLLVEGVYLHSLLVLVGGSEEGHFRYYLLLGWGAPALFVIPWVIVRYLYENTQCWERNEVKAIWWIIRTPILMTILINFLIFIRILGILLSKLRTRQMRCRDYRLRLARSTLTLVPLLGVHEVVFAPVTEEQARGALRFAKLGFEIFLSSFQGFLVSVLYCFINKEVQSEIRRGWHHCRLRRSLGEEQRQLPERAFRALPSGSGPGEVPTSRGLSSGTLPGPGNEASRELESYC
test: cell-based or functional assay
Numbered stars: 1 amine (or outer) side, 2 acyl side, 3 side chain; on linkers, the order of the positions; unused ones are H or OH. Square brackets hold non-standard residues; d marks the D form. Side chains are listed from the residue outwards. Ends that are not written are not given here. * marks the point of attachment. 40K‑TE PEG = 40 kDa PEG covalently bound via thioether, formed by reaction of the free thiol of the peptide (Cys side chain) with an iodoacetic-functionalized PEG; γGlu = O=C(O)[C@H](CCC(=O)[*:2])N[*:1]; Palmitoyl = CCCCCCCCCCCCCCCC(=O)*; EC16 = not defined here; Aib = CC(C)(N)C(=O)O
Rule: measured EC50 (nM) at GIP receptor below 30 nM gets fulfilled; anything equal to or greater than 30 nM gets not fulfilled.

binder	assignedCategory
H[Aib]QGTFTSDYSKYLDEKRA[Aib]EFVC(40K‑TE PEG)WLLDE-NH2 [peptide of SEQ ID NO: 16]	not fulfilled
H[Aib]QGTFTSDK([γGlu-Palmitoyl])SKYLD[Aib]RAAQDFVQWLMKTK[dE]-OH [peptide of SEQ ID NO: 60]	not fulfilled
HXQGTFTSDKSKYLDERAAQDFVQWLMDT (Aib at 2; Lys 10 acylated, printed K(γEyEC16); C-terminal amide) [peptide of SEQ ID NO: 61]	fulfilled
H[Aib]QGTFTSDYSKYLDERRA[Aib]EFVC(40K‑TE PEG)WLLDGGPSSGAPPPS-NH2 [peptide of SEQ ID NO: 35]	fulfilled
H[dS]QGTFTSDK([γGlu-EC16])SKYLDERAAQDFVQWLLDGRG-NH2 (reading uncertain; also: printed as HsQGTFTSDK(gammaGlu-EC16)SKYLDERAAQDFVQWLLDGRG-amide) [peptide of SEQ ID NO: 19]	fulfilled

Now turn to the next binder.
Consider H[Aib]QGTFTSDYSKYLDERRA[Aib]EFVC(40K‑TE PEG)WLLDT-NH2 [peptide of SEQ ID NO: 14] . Does its EC50 (nM) at GIP receptor lie strictly below 30 nM?
not fulfilled
